- Target of assay: Histone deacetylase 1 (Homo sapiens, UniProt Q13547)
- Sequence (Q13547 whole entry): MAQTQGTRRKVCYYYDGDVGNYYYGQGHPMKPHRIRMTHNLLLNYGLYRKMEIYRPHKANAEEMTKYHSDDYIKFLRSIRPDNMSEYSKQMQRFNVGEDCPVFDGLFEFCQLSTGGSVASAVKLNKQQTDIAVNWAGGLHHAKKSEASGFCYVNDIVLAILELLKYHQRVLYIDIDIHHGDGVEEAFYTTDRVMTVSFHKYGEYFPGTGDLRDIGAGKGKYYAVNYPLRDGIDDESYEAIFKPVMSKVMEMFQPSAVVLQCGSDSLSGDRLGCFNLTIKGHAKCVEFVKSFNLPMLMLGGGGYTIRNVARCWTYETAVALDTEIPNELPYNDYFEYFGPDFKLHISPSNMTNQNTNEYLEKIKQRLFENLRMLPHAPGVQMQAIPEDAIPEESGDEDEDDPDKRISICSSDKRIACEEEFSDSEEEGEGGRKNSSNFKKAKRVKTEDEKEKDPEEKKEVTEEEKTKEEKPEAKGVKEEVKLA
- Experiment summary: Inhibition of recombinant HDAC1
Value type: pIC50
Scale for pIC50: -log10 of concentration given in mol/L; no unit attached.

For the molecule N=C/C=N/c1ccc(C(=O)Nc2cc(-c3cccs3)ccc2N)cc1 , give its measured pIC50 value.
7.22

* * *

- Target of assay: Protein deacetylase HDAC6 (Homo sapiens)
- Sequence (Q9UBN7 whole entry): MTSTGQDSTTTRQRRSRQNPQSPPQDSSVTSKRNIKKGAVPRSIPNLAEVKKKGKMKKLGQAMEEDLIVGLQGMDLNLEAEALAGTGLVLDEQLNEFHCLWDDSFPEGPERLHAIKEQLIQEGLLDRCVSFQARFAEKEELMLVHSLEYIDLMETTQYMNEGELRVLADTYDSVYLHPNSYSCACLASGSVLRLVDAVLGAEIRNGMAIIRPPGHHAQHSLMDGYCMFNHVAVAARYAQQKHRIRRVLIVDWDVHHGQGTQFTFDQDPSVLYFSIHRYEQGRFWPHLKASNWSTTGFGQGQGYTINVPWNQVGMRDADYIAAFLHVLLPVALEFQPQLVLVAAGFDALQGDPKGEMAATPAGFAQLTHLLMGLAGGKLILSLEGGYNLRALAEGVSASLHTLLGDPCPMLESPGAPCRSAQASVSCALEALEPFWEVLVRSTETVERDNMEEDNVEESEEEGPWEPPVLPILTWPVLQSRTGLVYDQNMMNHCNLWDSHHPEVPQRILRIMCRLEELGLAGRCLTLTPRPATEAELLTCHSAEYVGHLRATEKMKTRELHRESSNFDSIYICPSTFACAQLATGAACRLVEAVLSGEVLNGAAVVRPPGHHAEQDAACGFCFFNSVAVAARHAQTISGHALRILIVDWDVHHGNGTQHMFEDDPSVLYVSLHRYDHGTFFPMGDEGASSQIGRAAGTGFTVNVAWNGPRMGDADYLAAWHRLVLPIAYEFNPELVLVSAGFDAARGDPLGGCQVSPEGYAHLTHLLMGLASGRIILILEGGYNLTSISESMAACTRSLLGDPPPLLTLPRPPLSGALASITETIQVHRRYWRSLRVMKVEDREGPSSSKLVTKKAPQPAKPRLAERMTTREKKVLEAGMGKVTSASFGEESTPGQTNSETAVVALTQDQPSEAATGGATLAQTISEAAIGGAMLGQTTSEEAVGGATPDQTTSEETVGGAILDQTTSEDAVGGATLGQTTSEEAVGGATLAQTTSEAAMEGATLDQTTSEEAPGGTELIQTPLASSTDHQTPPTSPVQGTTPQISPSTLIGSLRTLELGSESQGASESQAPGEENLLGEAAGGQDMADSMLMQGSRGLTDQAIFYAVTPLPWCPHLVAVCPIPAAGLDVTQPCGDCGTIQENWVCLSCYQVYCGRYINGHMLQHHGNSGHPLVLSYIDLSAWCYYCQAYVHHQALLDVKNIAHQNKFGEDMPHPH
- Experiment summary: Inhibition of recombinant HDAC6
pIC50: −log10 of the molar value.
Entries and their pIC50 values follow.

COc1ccc(C(=O)Nc2cc(-c3cccs3)ccc2N)cc1 ... < 4.70

# input for lookup
Return value of pIC50 for input N=C/C=N/c1ccc(C(=O)Nc2cc(-c3cccs3)ccc2N)cc1 , no commentary.
< 4.70

* * *

Target chain: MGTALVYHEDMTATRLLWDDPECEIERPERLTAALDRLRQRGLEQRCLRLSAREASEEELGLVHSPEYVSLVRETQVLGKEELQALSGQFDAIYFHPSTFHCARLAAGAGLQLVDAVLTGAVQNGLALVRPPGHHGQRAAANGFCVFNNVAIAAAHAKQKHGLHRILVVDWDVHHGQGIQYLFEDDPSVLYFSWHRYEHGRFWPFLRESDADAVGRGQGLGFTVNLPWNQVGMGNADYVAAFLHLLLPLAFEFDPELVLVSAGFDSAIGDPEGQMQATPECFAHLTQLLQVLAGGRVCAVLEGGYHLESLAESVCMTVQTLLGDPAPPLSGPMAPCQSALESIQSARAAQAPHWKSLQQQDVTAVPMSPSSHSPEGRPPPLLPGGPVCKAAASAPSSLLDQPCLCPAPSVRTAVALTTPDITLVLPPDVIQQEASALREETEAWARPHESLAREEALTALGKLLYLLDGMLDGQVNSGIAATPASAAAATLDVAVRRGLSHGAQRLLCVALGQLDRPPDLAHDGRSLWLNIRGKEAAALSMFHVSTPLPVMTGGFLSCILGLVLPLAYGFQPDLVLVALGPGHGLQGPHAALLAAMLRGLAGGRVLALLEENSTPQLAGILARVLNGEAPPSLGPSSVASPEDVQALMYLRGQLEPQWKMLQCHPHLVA
Value type: pIC50
The meaning of pIC50 here: minus log10 of the concentration in molar units.

Give the reported value of pIC50 for this record: Cn1cc(/C=C/C(=O)NO)cc1C(=O)c1ccccc1
7.30

* * *

- Target of assay: Histone deacetylase 2 (Homo sapiens)
- Sequence (Q92769 whole entry): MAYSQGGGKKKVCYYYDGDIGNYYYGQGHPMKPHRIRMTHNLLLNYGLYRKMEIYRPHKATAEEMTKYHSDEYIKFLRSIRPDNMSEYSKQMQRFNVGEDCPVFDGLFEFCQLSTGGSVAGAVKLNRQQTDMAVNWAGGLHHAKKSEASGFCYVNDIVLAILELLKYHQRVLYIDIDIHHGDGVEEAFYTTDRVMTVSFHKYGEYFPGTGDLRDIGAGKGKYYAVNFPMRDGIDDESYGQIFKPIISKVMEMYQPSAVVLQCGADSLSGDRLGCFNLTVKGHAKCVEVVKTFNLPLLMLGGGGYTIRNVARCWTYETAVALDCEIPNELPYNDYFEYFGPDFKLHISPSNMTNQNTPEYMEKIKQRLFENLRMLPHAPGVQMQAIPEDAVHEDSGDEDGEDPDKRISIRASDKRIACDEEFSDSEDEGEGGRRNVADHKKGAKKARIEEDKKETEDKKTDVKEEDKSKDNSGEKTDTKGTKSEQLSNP
- Experiment summary: Inhibition of recombinant HDAC2
Value type: pIC50
pIC50 is defined as minus the log10 of a concentration measured in mol/L.

# return pIC50 of N=C/C=N/c1ccc(C(=O)Nc2cc(-c3cccs3)ccc2N)cc1 (system: Histone deacetylase 2 (Homo sapiens))
7.70

* * *

- Target of assay: Histone deacetylase
- Experimental context: hela
- Description: Inhibition of HDAC in human HeLa cells
Non-standard residues stand in square brackets, D forms with d. Residues, ends and D or L forms follow the SMILES beside them. Ala(indol-2-yl) = N[C@@H](Cc1cc2ccccc2[nH]1)C(=O)O; Asu = N[C@@H](CCCCCC(=O)O)C(=O)O; β3hI = CC[C@H](C)[C@H](N)CC(=O)O
Below, each entry is listed alongside its reported IC50.
The reply should contain only the number, in µM.

Below, 2 compounds whose answers are already recorded.
CC[C@H](C)[C@H]1CC(=O)NCC(=O)N[C@@H](CCCCCC(=O)O)C(=O)N[C@@H](Cc2cc3ccccc3[nH]2)C(=O)N1 (cyclo([Asu][Ala(indol-2-yl)][β3hI]G)) ... 0.3
CCC(=O)CCCCC[C@@H]1NC(=O)CNC(=O)C[C@H]([C@@H](C)CC)N(C)C(=O)[C@H](Cc2cc3ccccc3[nH]2)NC1=O ... 2

Now look at this one.
// Input: CCC(=O)CCCCC[C@@H]1NC(=O)[C@H](C)NC(=O)C[C@H]([C@@H](C)CC)NC(=O)[C@H](Cc2cc3ccccc3[nH]2)NC1=O . Output its IC50 only.
0.04

* * *

- Target of assay: Histone deacetylase
- Experimental context: hela
Non-standard residues stand in square brackets, D forms with d. Residues, ends and D or L forms follow the SMILES beside them. Ala(indol-2-yl) = N[C@@H](Cc1cc2ccccc2[nH]1)C(=O)O; Asu = N[C@@H](CCCCCC(=O)O)C(=O)O; β3hI = CC[C@H](C)[C@H](N)CC(=O)O
Value type: IC50 (nM)
# output: bare number, implied unit nM

O=C(CS)NCCCCCC(=O)Nc1cccc2cccnc12 ... 900

Please look at this compound and report its IC50: CC[C@H](C)[C@H]1CC(=O)NCC(=O)N[C@@H](CCCCCC(N)=O)C(=O)N[C@@H](Cc2cc3ccccc3[nH]2)C(=O)N1 (cyclo([Asu](NH2)[Ala(indol-2-yl)][β3hI]G))
2700

Return value of IC50 for input O=C(CS)NCCCCCC(=O)Nc1ccc2ncccc2c1 , no commentary.
900

Answer with the recorded IC50 of CCC(=O)CCCCC[C@@H]1NC(=O)CNC(=O)C[C@H]([C@@H](C)CC)NC(=O)[C@H](Cc2cc3ccccc3[nH]2)NC1=O only.
19
